Molecular target: 5-HT1B receptor (Cavia porcellus, UniProt O08892)
Sequence (O08892 whole entry): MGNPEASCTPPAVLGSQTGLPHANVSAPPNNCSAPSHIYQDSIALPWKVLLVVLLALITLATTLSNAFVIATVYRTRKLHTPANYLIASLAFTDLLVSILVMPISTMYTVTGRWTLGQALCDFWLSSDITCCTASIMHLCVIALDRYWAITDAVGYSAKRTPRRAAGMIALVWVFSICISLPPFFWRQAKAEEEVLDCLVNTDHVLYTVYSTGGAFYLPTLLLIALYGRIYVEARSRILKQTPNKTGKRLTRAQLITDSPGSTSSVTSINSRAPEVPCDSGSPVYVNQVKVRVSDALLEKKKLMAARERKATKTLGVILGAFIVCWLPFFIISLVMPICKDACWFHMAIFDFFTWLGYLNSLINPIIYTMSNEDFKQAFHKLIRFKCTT
property_label: Ki (nM)

[[record]]
molecule = "c1cc2c(c(N3CCC(NCCC45CC6CC(CC(C6)C4)C5)CC3)c1)OCCO2 [Example 9]"
test_result = 10

